B1: LINE1-full (parent)
chain: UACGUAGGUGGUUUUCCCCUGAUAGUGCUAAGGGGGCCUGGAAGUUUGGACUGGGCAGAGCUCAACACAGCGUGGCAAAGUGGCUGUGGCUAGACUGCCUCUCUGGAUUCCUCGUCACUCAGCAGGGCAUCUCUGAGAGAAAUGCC

variants of: B1; assay: self-cleavage, relative activity (ratio to wild type); higher = more cleavage; in vitro, sequencing; the parent is a self-cleaving ribozyme
# if value of self-cleavage reaches 0.4, tag fulfilled; if it stays below, tag not fulfilled

Variant	Qualitative label
A57C A136G	not fulfilled
U26A U73G	fulfilled
C56U U100C	fulfilled
A59G C61A	not fulfilled
U9C U14G	fulfilled
